The measurements presented in this section are drawn from PubChem BioAssay.

Tested on: Neuregulin-1 EGF-like domain
protocol_text: binders of neuregulin-1 EGF-like domain, primary screen, biochemical, small-molecule microarray, 635 nm fluorescence (AID 1081);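 also: binding of the protein to compounds printed on small-molecule microarray slides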
test_conditions: small-molecule microarray binding, higher = more signal
Measured composite z-score accompanies every entry in the list below.
measure_name: composite z-score

compound	measure_name	recorded_number
CCCCCN1CC=CC23O[C@@H]4/C=C\CCC(C)OC(=O)C4[C@H]2C(=O)N(C(C)CO)[C@@H]3C1=O (stereo not given in full)	composite z-score	0.38
COCCOC(=O)N1C(=O)[C@@]2(c3cc(C#CCCO)ccc31)[C@H](C(=O)N1CCCCCCC1)[C@H]1C(=O)O[C@H](c3ccccc3)[C@H](c3ccccc3)N1[C@@H]2c1ccc(OCCO)cc1	composite z-score	1.18
Cc1ccc(S[C@]2(C(=O)O)CC(=O)N(C(C)C)[C@@H]2c2ccc(CO)cc2I)cc1	composite z-score	1.16
COc1ccc([C@H]2OC[C@@H]3C[C@@H](Cc4ccccc4)C(=O)N32)cc1	composite z-score	1.11
O[C@@H](Cc1ccccc1)[C@H]1C2C=CCCC=C2CN1Cc1cccc(Cl)c1 (stereo not given in full)	composite z-score	1.19
CCOC(=O)C[C@H]1[C@H](OC(=O)c2ccc(C(=O)c3ccccc3)cc2)[C@@H](NC(=O)c2ccc3ccccc3n2)c2cc(OCCCO)ccc2N1C(=O)c1ccccc1	composite z-score	0.975
O=C(CS)NCCCCCCNC(=O)[C@@H]1C[C@@H]2C(=O)N[C@@H](Cc3ccccc3)C(=O)N2[C@@H]1c1cccc(OCCO)c1	composite z-score	1.23
O=C1c2ccccc2[C@](Cc2ccccc2I)(C(=O)NCC(F)(F)F)[C@H](c2ccc(CO)cc2)N1Cc1ccccc1Cl	composite z-score	1.28
C=C(C)[C@@H]1CC=C(C(O)C2C=CC3C(=O)N(c4ccccc4)C(=O)C3N2Nc2ccccc2)CC1 (stereo not given in full)	composite z-score	1.28
CCc1cccc(NC(=O)O[C@H]2[C@H](OC(=O)Nc3ccccc3-c3ccccc3)[C@@H](OC(=O)Nc3ccccc3-c3ccccc3)[C@@H](OC)O[C@@H]2CO)c1	composite z-score	1.27

====

protocol_text: small-molecule binders of probe aLefty1, primary screen, biochemical, small-molecule microarray, 635/667 nm fluorescence (AID 1153);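 also: score merges spot fluorescence with signal-to-noise ratio from the scanned slide images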
test_conditions: higher = more signal
I would appreciate it if you labelled entries yes (1) when composite z-score is 0.09 or higher, otherwise no (0).

compound	label_class
C=CCOC(=O)[C@@H]1[C@H]2C(=O)O[C@H](c3ccccc3)[C@H](c3ccccc3)N2[C@H](c2ccc(OCCOC(=O)[C@@H]3C[C@@H]4C(=O)NCC(=O)N4[C@@H]3c3ccc(O)cc3)cc2)[C@@]12C(=O)Nc1ccc(I)cc12	no (0)
COCCOC(=O)N1C(=O)[C@@]2(c3cc(C#CCCO)ccc31)[C@H](C(N)=O)[C@H]1C(=O)O[C@H](c3ccccc3)[C@H](c3ccccc3)N1[C@@H]2c1ccc(O)cc1	no (0)
O=C1[C@@]23C=C(Br)[C@H](C[C@@H]2CCOC3)[C@@]12CO2	no (0)
O=C1C[C@@](C(=O)NCC(F)(F)F)(c2ccc([N+](=O)[O-])cc2)[C@@H](c2ccc(CO)cc2I)N1C1CCCCC1	yes (1)
COc1ccccc1CN1C(=O)c2ccccc2[C@@]2(Cc3ccccc3N(CC(C)C)C2=O)[C@@H]1c1ccc(CO)cc1	no (0)
C=C(CCCC)C(=O)CC[C@@H](OC(=O)c1ccccc1-c1ccccc1C(=O)O)c1ccc(OCCO)cc1	no (0)
C=CCNC(=O)[C@@H]1[C@H]2C(=O)O[C@H](c3ccccc3)[C@H](c3ccccc3)N2[C@H](c2ccc(OCCO)cc2)[C@@]12C(=O)Nc1ccc(C#CCC(C(=O)OC)C(=O)OC)cc12	yes (1)
[N-]=[N+]=Nc1ccccc1[C@@H]1OC(c2ccc(OCCCO)cc2)=N[C@]1(Cc1ccccc1)C(=O)N1CCOCC1	yes (1)
COC(=O)[C@H](Cc1ccccc1)N1CC2=C[C@@H](C3CC3)n3c(=O)n(C)c(=O)n3[C@H]2[C@@H]1[C@@H](O)Cc1ccccc1	yes (1)
CC1CC/C=C\[C@H]2OC34C=CCN(C(C)(C)C)C(=O)[C@H]3N(C(C)CO)C(=O)[C@@H]4C2C(=O)O1 (some centres undefined)	no (0)
COCCOC(=O)N1C(=O)[C@@]2(c3ccccc31)[C@H](c1ccccc1OCCO)N1[C@H](c3ccccc3)[C@H](c3ccccc3)OC(=O)[C@H]1[C@@H]2C(=O)N1CCN(c2ncccn2)CC1	no (0)
O=C1O[C@H](c2ccccc2)[C@H](c2ccccc2)N2[C@H]1[C@@H](C(=O)N1CCCCCCC1)[C@]1(C(=O)Nc3ccc(C#CCCO)cc31)[C@H]2c1ccccc1OCCO	yes (1)
C=CCOC(=O)[C@H]1[C@@H]2C(=O)O[C@@H](c3ccccc3)[C@@H](c3ccccc3)N2[C@@H](c2ccc(OCCOC(=O)[C@H]3C[C@H]4C(=O)N[C@@H](CCCCNC(C)=O)C(=O)N4[C@H]3c3cccc(OCCO)c3)cc2)[C@]12C(=O)Nc1ccccc12	yes (1)
